So I've got a bunch of molecules here, and I need their percent remaining, 336 h values.
# Assay Protocol: Acid-catalyzed hydrolysis of enol ethers in THF/1 M HCl, percent remaining by GC-FID
# Type: physicochemical
# Test Context: THF/1M HCl (80:20 v/v), room temperature, 336 h
# Protocol: Each enol ether was dissolved in a 4:1 THF/1 M HCl mixture and the percent remaining over time measured relative to an internal standard. After mixing, 2 mL of this solution were removed with a volumetric pipet and used to obtain the time zero measurement. 2 mL of 1 M HCl were mixed with the remaining 8 mL of the THF solution. […] The vials were stored at room temperature until analyzed. […] Samples of the organic phase were analyzed by GC-FID. […] The top phase then was analyzed by GC-FID. […]

# count of solved cases: 10
CC/C=C\CCOC(=O)C(C)OC=C(C)c1ccc(OC)cc1 (racemic): 65.0%
COC(=O)C(C)(C)OC=Cc1ccccc1 [Compound 10, methyl 2-methyl-2-(styryloxy)propanoate]: 77%
CC/C=C\CCOC(=O)C(C)OC=Cc1ccc(OC)cc1 (racemic): 60.1%
CCCCCC(CC)OC(=O)C(C)OC=C(C)c1ccccc1 (racemic): 93.3%
C(=Cc1ccccc1)OCCc1ccccc1 [(2-phenethoxyvinyl)benzene, reference compound]: 45.2%
CC(OC=Cc1ccccc1)C(=O)OCCc1ccccc1 (racemic) [Compound 40, (±)-phenethyl 2-(styryloxy)propanoate]: 59.0%
CC/C=C\CCOC=Cc1ccc(OC)cc1 [Compound 51, reference compound]: 29.1%
COC(=O)C(C)(C)OC=C(C)c1ccc(OC)cc1: 87.7%
CC(=COCCc1ccccc1)c1ccc(C)cc1 [reference compound]: 70.4%
CC(=COC(C)(C)CCCC(C)C)c1ccccc1 [reference compound]: 41.7%

Let us move to another entry and its percent remaining, 336 h.
For record COC(=O)C(C)(C)OC=C(C)c1ccccc1 the listed percent remaining, 336 h is 93.6%
